Quick reference: activity change % (negative = inhibition) of the listed items.
Molecular target: Thyroid hormone receptor beta (Homo sapiens) (UniProt P10828)
Sequence (P10828 whole entry, looked up): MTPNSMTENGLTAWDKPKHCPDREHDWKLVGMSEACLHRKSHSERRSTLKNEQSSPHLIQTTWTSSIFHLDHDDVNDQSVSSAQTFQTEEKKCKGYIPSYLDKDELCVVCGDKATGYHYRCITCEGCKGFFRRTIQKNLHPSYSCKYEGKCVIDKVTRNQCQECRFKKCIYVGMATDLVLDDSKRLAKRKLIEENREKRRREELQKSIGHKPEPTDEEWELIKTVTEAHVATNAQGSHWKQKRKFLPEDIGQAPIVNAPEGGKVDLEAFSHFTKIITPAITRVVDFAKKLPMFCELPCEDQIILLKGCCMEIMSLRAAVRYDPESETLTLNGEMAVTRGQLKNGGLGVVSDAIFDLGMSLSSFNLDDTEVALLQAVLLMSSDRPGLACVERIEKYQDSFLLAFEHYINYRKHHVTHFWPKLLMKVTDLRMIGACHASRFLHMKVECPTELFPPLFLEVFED
Assay: qHTS assay for small molecule antagonists of thyroid hormone receptor beta signaling (AID 588547);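 note: cells stimulated with 0.4 nM T3 agonist during compound exposure; % is set by controls: 0 for no effect and ±100 for the full control effect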
Conditions: TR-UAS-bla HEK293, beta-lactamase ratio, antagonist mode, 18 h
Inconclusive results are not listed.
value_kind: activity change % (negative = inhibition) (%)

molecule	unit_text	observed_measurement
OC1CCC(C2CCCCC2)CC1 (centres undefined)	%	4.98
CCCCCCC(O)CCCCCCCCCCC(=O)O (centres undefined)	%	-5.14
CCC(C)(C)C1CCC(O)CC1 (centres undefined)	%	-5.82
Oc1ccc(Nc2ccccc2)cc1	%	-3.3
O=C(O)c1ccc2c(c1)C(=O)OC2=O	%	1.57
Cc1c(Cl)cccc1Cl	%	-11.7
CN(C)C(=O)Nc1ccccc1	%	-24.6
C=CC(=O)OCC[N+](C)(C)C	%	-9.01
O=S(c1ccc(Cl)cc1)c1cc(Cl)c(Cl)cc1Cl (centres undefined)	%	-2.9
O=C(OCC1CCC2OC2C1)C1CCC2OC2C1 (centres undefined)	%	1.74
CO[Si](CCCOCC1CO1)(OC)OC (centres undefined)	%	7.57
CC1(C)[C@@H](C=C(Cl)Cl)[C@@H]1C(=O)OCc1cccc(Oc2ccccc2)c1	%	5.01
CC(=O)OC1CCC(C(C)(C)C)CC1 (centres undefined)	%	5.89
CCCCOCCOCCOC(=O)CCCCC(=O)OCCOCCOCCCC	%	-12.6

---

Tested on: PAD
Experiment: qHTS profiling for inhibitors of Plasmodium falciparum proliferation (AID 504749);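 note: 0% = DMSO vehicle and full inhibition = artemisinin control; nearly all actives have a fitted effect of over 60% in size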
Conditions: P. falciparum in erythrocytes, SYBR Green DNA, 72 h; series mostly up to 28.7 µM
Records with an inconclusive call do not appear. Active and inactive are the calls of the source. Calls follow the shape of the dose curve; as a rule, active = well fitted inhibition curve with a large enough effect; inconclusive = small, poorly fitted or top-dose-only effect; inactive = flat fitted curve, though single readings scatter.
value_kind: outcome

compound	observed_measurement
CCC(C)C1NC(=O)C(Cc2ccc(O)cc2)NC(=O)C(N)CSSCC(C(=O)N2CCCC2C(=O)NC(CC(C)C)C(=O)NCC(N)=O)NC(=O)C(CC(N)=O)NC(=O)C(CCC(N)=O)NC1=O (stereo not drawn)	inactive
NC(=O)CCC1NC(=O)C(Cc2ccccc2)NC(=O)C(Cc2ccc(O)cc2)NC(=O)CCSSCC(C(=O)N2CCCC2C(=O)NC(CCCN=C(N)N)C(=O)NCC(N)=O)NC(=O)C(CC(N)=O)NC1=O (stereo not drawn)	inactive
O=C(O)c1ccccc1-c1c2cc(Br)c(=O)c(Br)c-2oc2c(Br)c(O)c(Br)cc12	inactive

---

Molecular target: Cytochrome P450 3A4 (Homo sapiens) (UniProt P08684)
Sequence (P08684 whole entry, looked up): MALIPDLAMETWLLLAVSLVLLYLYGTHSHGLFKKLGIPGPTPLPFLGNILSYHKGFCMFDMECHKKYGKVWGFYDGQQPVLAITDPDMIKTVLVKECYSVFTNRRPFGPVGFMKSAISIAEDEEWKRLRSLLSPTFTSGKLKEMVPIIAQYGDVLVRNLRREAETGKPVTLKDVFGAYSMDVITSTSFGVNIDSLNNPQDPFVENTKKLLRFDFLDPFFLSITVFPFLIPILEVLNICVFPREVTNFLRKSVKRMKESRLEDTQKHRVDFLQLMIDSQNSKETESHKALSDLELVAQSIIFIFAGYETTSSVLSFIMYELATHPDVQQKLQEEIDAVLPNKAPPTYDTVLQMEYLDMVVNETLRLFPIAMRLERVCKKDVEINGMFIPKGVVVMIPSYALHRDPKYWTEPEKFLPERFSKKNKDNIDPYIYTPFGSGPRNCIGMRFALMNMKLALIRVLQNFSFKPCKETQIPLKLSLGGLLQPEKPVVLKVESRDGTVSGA
Test: qHTS Assay for Activators of Cytochrome P450 3A4 (AID 885); note: nearly all actives have a fitted effect of over 65% in size
Details: recombinant CYP3A4, Luciferin-PPXE luminescence, 60 min; series mostly up to 57.1 µM
Active and inactive are the calls of the source. Calls follow the shape of the dose curve; as a rule, active = well fitted activation curve with a large enough effect; inconclusive = small, poorly fitted or top-dose-only effect; inactive = no such curve, though single readings can be large or run the other way.

molecule	activity change, positive = activation
COC(=O)C/C=C\[C@@H](C)[C@@H](/C=N\OC[C@@H](O)[C@H]1O[C@H]2OC(C)(C)O[C@H]2[C@@H]1O)NS(=O)(=O)c1ccc(C)cc1	-61% [at 11.4 µM] (inactive)
COC(=O)c1ccc(C(NC(=O)OCc2ccccc2)/C(=C/[C@@H](C)C(=O)Nc2ccccc2)c2cccnc2)cc1 (stereo partly drawn)	inactive
COC(=O)c1ccc(C(NC(=O)OCc2ccccc2)/C(I)=C/[C@@H](C)C(=O)Nc2ccccc2)cc1 (stereo partly drawn)	inactive
C[C@@H]1OC2C3=C(C(=O)[C@H]4O[C@@H]4[C@H]3O)[C@@H]1[C@H]1[C@H](C)OC=C3[C@H](O)[C@H]4O[C@H]4/C(=N\OCc4ccccc4)[C@@]321	-58.8% [at 11.4 µM] (inactive)
CN(C)c1cccc(OC2C=CC(C#Cc3ccccc3)OC2CO)c1 (stereo not drawn)	-83.1% [at 11.4 µM] (inactive)
CCC1=C2CC[C@H]3C(=O)NC(=O)[C@H]3[C@H]2[C@@]2(C)C(=NCC3CC3)OC(=O)N2C1=O	inactive
COC(=O)[C@@H]1C[C@@H]2CC[C@@H](O)C[C@@H]2N1Cc1ccc(C)s1	inactive
CO[C@@H]1COC(=O)[C@H]2CCCN2C(=O)[C@@H](C)COC(=O)[C@H](COCc2ccccc2)NC(=O)C/C=C\[C@H]1C	-38.2% [at 11.4 µM] (inactive)
O=C(O)c1sccc1S(=O)(=O)Nc1ccc(Cl)cc1	inactive
C#CCCCO/N=C1/C[C@@H](O)[C@@H](O)[C@@H]2[C@@H]3C(=O)N([C@@H](C)c4ccccc4)C(=O)[C@H]3CC[C@H]12	-89.1% [at 11.4 µM] (inactive)
Cc1cc(C)cc(C#CC2C=CC(Oc3ccc(C4CCCC4)cc3)C(CO)O2)c1 (stereo not drawn)	-81.6% [at 11.4 µM] (inactive)
CC(C)c1ccccc1S(=O)(=O)c1cc(N)c2ncccc2c1[N+](=O)[O-]	inactive
O=C1[C@H]2[C@H]3[C@H](O)[C@H](O)C/C(=N/OCc4ccccc4)[C@@H]3CC[C@@H]2C(=O)N1Cc1ccc2c(c1)OCO2	-100% [at 11.4 µM] (inactive)
C=CCc1cccc(C2C(C)CCC3C(=O)N4C(CCC(C)C4c4cccc(CC=C)c4)C(=O)N32)c1 (stereo not drawn)	-58.4% [at 11.4 µM] (inactive)
CC(Cc1ccccc1)C(=O)NCc1ccncc1 (stereo not drawn)	inactive
COC(=O)[C@@H]1CC[C@H](C)[C@@H](c2ccc(C)cc2)N1C(=O)c1ccc(/C=N\OC[C@@H]2O[C@H](c3ccccc3)C=C[C@@H]2Oc2ccc(OC)cc2)cc1	-30% [at 11.4 µM] (inactive)
CN(C)c1ccc(O)c2c1C[C@@H]1C[C@H]3C(N(C)C)C(=O)C(C(N)=O)=C(O)[C@@]3(O)C(=O)C1=C2O (stereo partly drawn)	inactive
C[C@@H](c1ccccc1)N1C(=O)[C@H]2[C@H]3[C@H](O)[C@H](O)C/C(=N/OC[C@@H](O)COCc4ccco4)[C@@H]3CC[C@@H]2C1=O	-82.9% [at 11.4 µM] (inactive)
CC1(C)CC(=O)c2c(oc3cc(O)c(O)cc23)C1	inactive
COc1ccc(OCC2Cc3c(-c4ccccc4)nc4c(c3CO2)CN(CCOc2ccccc2)CC4)cc1 (stereo not drawn)	-83.6% [at 11.4 µM] (inactive)
O=C(/C=C/c1ccc(O)cc1)c1cccs1	inactive
C/C(CCN1CCCc2nc(C)c(C)cc21)=N\OC[C@@H](O)COCc1ccco1	-77.3% [at 11.4 µM] (inactive)
O=C(N/N=C1/C[C@@H](O)[C@@H](O)[C@@H]2[C@H]3C(=O)N(c4ccc(F)cc4F)C(=O)[C@@H]3CC[C@@H]12)OCc1ccccc1	-45.4% [at 11.4 µM] (inactive)
O=C(/C=C\c1ccc2c(c1)OCO2)c1ccc(F)cc1	-89.5% [at 11.4 µM] (inactive)
COC(=O)C/C=C\[C@@H](C)[C@@H](/C=N\O[C@@H]1O[C@H](COC(C)=O)[C@H](OC(C)=O)[C@H](OC(C)=O)[C@H]1OC(C)=O)OC	-32.3% [at 11.4 µM] (inactive)
COC(=O)NC(c1cccs1)C(C(C)=O)C(=O)OC (stereo not drawn)	-34.2% [at 11.4 µM] (inactive)
CCCCCCC#CC1C=CC(Oc2ccc(C=O)cc2)C(CO)O1 (stereo not drawn)	-35.2% [at 11.4 µM] (inactive)
CCCC/C=C/C(NC(=O)c1ccc(C(F)(F)F)cc1)c1ccccc1 (stereo not drawn)	inactive
CCC1=C(OC(=O)N(CC)CC)N2C(=O)OC(=NCC3CC3)[C@]2(Cc2ccccc2)[C@H]2C1=CC[C@H]1C(=O)N(C)C(=O)[C@H]12	inactive
CNC(=O)[C@@H](Cc1ccccc1)N(C)C(=O)[C@@H](Cc1ccc2ccccc2c1)N(C)C(=O)/C=C/CC(C)(C)N	inactive
Cn1c(N)c(C(=O)COC(=O)c2cc(-c3ccccc3)nc3ccccc23)c(=O)n(Cc2ccccc2)c1=O	inactive
CC(=O)N1[C@H](C)C=C[C@]1(Cc1ccccc1)C(=O)NCCN1CCOCC1	inactive
CCCCCCN(C(=O)CCCCCN1C(=O)NC(c2ccc(C3CCCCC3)cc2)C(C(=O)OCc2ccccc2)=C1C)C(C(=O)NCCCC)c1ccc(OCC(=O)OC)c(C(=O)OC)c1 (stereo not drawn)	inactive

---

Assay: qHTS for Inhibitors of Plasmodium falciparum (GB4) proliferation (AID 504315); note: nearly all actives have a fitted effect of over 50% in size
Settings: P. falciparum GB4 in erythrocytes, SYBR Green DNA, 72 h; series mostly up to 6.7 µM
Inconclusive results are not listed. Calls of active or inactive are those of the source. Calls follow the shape of the dose curve; as a rule, active = well fitted inhibition curve with a large enough effect; inconclusive = small, poorly fitted or top-dose-only effect, or effect the other way; inactive = flat fitted curve, though single readings scatter.
Outcomes: active, inactive

compound	category
CCOC(=O)CN1C(=O)N[C@@H](CCc2ccccc2)C(C(=O)OC)=C1C	inactive
COC(=O)[C@H]1[C@@H](C)N(Cc2ccccc2)C(=O)N[C@H]1c1cccc(C(F)(F)F)c1	inactive
COC(=O)C1=C(C(=O)OC)[C@@H]2Nc3ccccc3[C@@]23C[C@@H](C(=O)OC)N(C(=O)c2cccs2)C3=N1	inactive
CC#CCN1c2ccccc2[C@]23C[C@@H](C(=O)OC)N(C(=O)c4ccco4)C2=NC(C(=O)OC)=C(C(=O)OC)[C@H]13	inactive
C=CCN1c2ccccc2[C@]23C[C@@H](C(=O)OC)N(S(=O)(=O)c4ccc(C#N)cc4)C2=NC(C(=O)OC)=C(C(=O)OC)[C@H]13	inactive
COC/C=C/C1=CC2=CC(=O)C(C)(OC(=O)c3cnc4ccccc4n3)C(=O)C2=CN1c1ccc(OC)cc1 (stereo unspecified)	inactive
CC1(OC(=O)CCc2ccccc2)C(=O)C=C2C=C(c3ccc(C#N)cc3)N(Cc3ccco3)C=C2C1=O (stereo unspecified)	inactive
COC(=O)C1=C(C(=O)OC)[C@@H]2Nc3ccccc3[C@@]23C[C@@H](C(=O)OC)N(C(=O)c2ccco2)C3=N1	inactive
O=C(NS(=O)(=O)c1ccc(F)cc1)O[C@@H]1C(=O)c2cc(Br)ccc2O[C@H]1c1ccc2c(c1)OCO2	inactive
C=CC1=C2C=C(C3CC3)N(C3CC3)C=C2C(=O)C(C)(OC(=O)c2ccco2)C1=O (stereo unspecified)	inactive
COC(=O)CCCC1=CC2=CC(=O)C(C)(OC(=O)c3cccs3)C(=O)C2=CN1CC1CC1 (stereo unspecified)	inactive
CC1(OC(=O)C2CCCC2)C(=O)C=C2C=C(c3ccsc3)N(c3ccc(CO)cc3)C=C2C1=O (stereo unspecified)	inactive
COC(=O)C1=C(C(=O)OC)[C@@H]2N(Cc3ccccc3)c3ccccc3[C@@]23C[C@@H](C(=O)OC)N(S(=O)(=O)c2ccc(C#N)cc2)C3=N1	active
COC(=O)CCC(=O)OC1(C)C(=O)C=C2C=C(C3CC3)N(CCN3CCOCC3)C=C2C1=O (stereo unspecified)	inactive
C[C@H]1Cc2c(COc3ccccc3)nc3c(c2CO1)CN(S(=O)(=O)c1ccc(Cl)c2nonc12)CC3	inactive
C=CCNC(=O)N1C2=NC(C(=O)OC)=C(C(=O)OC)[C@@H]3N(Cc4ccccc4)c4ccccc4[C@]23C[C@H]1C(=O)OC	active
COC(=O)C1=C(C(=O)OC)[C@@H]2Nc3ccccc3[C@@]23C[C@@H](C(=O)OC)N(C(=O)c2ccc(Br)cc2)C3=N1	inactive
C=CCN1c2ccccc2[C@]23C[C@@H](C(=O)OC)N(S(=O)(=O)c4cccs4)C2=NC(C(=O)OC)=C(C(=O)OC)[C@H]13	inactive
CCCCc1nc2c(c3c1C[C@H](C)OC3)CN(C(=O)NCCc1c[nH]c3ccccc13)CC2	inactive
CC=Cc1cc2ccccc2c2c(C(=O)OC)c(C(=O)OC)c(C(=O)OC)n12	inactive
COC(=O)C1=C(C(=O)OC)[C@@H]2Nc3ccccc3[C@@]23C[C@@H](C(=O)OC)N(C(=O)C2CCC2)C3=N1	inactive
CCOC(=O)[C@@]1([C@@H](NC(=O)OC)c2cccc(F)c2)CCCC1=O	inactive
COC(=O)C1=C(C(=O)OC)[C@@H]2N(Cc3ccccc3)c3ccccc3[C@@]23C[C@@H](C(=O)OC)N(S(=O)(=O)c2ccc(Br)cc2)C3=N1	active
COC(=O)N1C2CC(=O)O[C@@H]3c4cc5c(cc4[C@]1(C)[C@@]3(Br)c1ccccc12)OCO5	active
COC(=O)[C@]1(C)C=C[C@@H](C)[C@H](c2ccccc2Br)N1C(=O)C(F)(F)F	inactive
COc1cccc([C@@H]2Oc3ccc(Br)cc3C(=O)[C@@H]2OC(=O)Nc2cc(OC)c(OC)c(OC)c2)c1	inactive
C=CCOC(=O)C(C(C)=O)[C@@H](NC(=O)OC)c1cccc(C(F)(F)F)c1 (stereo partly specified)	inactive
C=CCN1c2ccccc2[C@]23C[C@@H](C(=O)OC)N(S(=O)(=O)CCCC)C2=NC(C(=O)OC)=C(C(=O)OC)[C@H]13	inactive
CC#CCN1c2ccccc2[C@]23C[C@@H](C(=O)OC)N(C(=O)CC(C)C)C2=NC(C(=O)OC)=C(C(=O)OC)[C@H]13	inactive
COC(=O)C1=C(C(=O)OC)[C@@H]2N(C)c3ccc(OC)cc3[C@@]23C[C@@H](C(=O)OC)N(S(=O)(=O)c2ccc(OC)cc2)C3=N1	inactive
COC(=O)[C@@H](NC(=O)N1CCc2nc(-c3ccccc3)c3c(c2C1)CO[C@@H](C)C3)C(C)C	inactive

Numbers sourced from PubChem BioAssay (NCATS).
